Reference source for all entries: patent EP4707284A1

test: in vitro; assay type: cell-based, human; details: human; 300 µmol/L, about 24 hours, PMA-differentiated HL-60 cells, LDH activity; no-treatment group 0%, cell lysis buffer-treated group 100%; read-out: cytotoxicity (%) Evaluation compound results
molecules and their reported cytotoxicity at 24 h, 300 µM
RECORDED METRIC: cytotoxicity at 24 h, 300 µM (%)

- SMILES REPRESENTATION: "CC(C)OCCOP(=O)([O-])OC[N+]1(CCCCOc2ccc3ccc(=O)[nH]c3c2)CCN(c2cccc3sccc23)CC1"
  OBSERVED: -5
- SMILES REPRESENTATION: "O=c1ccc2ccc(OCCCC[N+]3(COP(=O)([O-])OCCCO)CCN(c4cccc5sccc45)CC3)cc2[nH]1"
  OBSERVED: 16
- SMILES REPRESENTATION: "CC(C)(C)OP(=O)([O-])OC[N+]1(CCCCOc2ccc3ccc(=O)[nH]c3c2)CCN(c2cccc3sccc23)CC1"
  OBSERVED: -5
- SMILES REPRESENTATION: "CCCCOCCOCCOP(=O)([O-])OC[N+]1(CCCCOc2ccc3ccc(=O)[nH]c3c2)CCN(c2cccc3sccc23)CC1"
  OBSERVED: -6
- SMILES REPRESENTATION: "CC(=O)OCCCOP(=O)([O-])OC[N+]1(CCCCOc2ccc3ccc(=O)[nH]c3c2)CCN(c2cccc3sccc23)CC1"
  OBSERVED: 3
- SMILES REPRESENTATION: "CCOC(=O)COP(=O)([O-])OC[N+]1(CCCCOc2ccc3ccc(=O)[nH]c3c2)CCN(c2cccc3sccc23)CC1"
  OBSERVED: 15
- SMILES REPRESENTATION: "O=c1ccc2ccc(OCCCC[N+]3(COP(=O)([O-])OCCO)CCN(c4cccc5sccc45)CC3)cc2[nH]1"
  OBSERVED: -2
- SMILES REPRESENTATION: "CCOC(=O)CCCC(=O)OCOP(=O)([O-])OC[N+]1(CCCCOc2ccc3ccc(=O)[nH]c3c2)CCN(c2cccc3sccc23)CC1"
  OBSERVED: -6
- SMILES REPRESENTATION: "O=C(OCOP(=O)([O-])OC[N+]1(CCCCOc2ccc3ccc(=O)[nH]c3c2)CCN(c2cccc3sccc23)CC1)C1CCCCC1"
  OBSERVED: 8
- SMILES REPRESENTATION: "CCOP(=O)([O-])OC[N+]1(CCCCOc2ccc3ccc(=O)[nH]c3c2)CCN(c2cccc3sccc23)CC1"
  OBSERVED: -7
- SMILES REPRESENTATION: "O=C(OCOP(=O)([O-])OC[N+]1(CCCCOc2ccc3ccc(=O)[nH]c3c2)CCN(c2cccc3sccc23)CC1)OC1CCCCC1"
  OBSERVED: 16
- SMILES REPRESENTATION: "CC(C)OP(=O)([O-])OC[N+]1(CCCCOc2ccc3ccc(=O)[nH]c3c2)CCN(c2cccc3sccc23)CC1"
  OBSERVED: -4

###

assay type: physicochemical; conditions: Tris-hydrochloric acid buffer (pH 7.5) 50 mmol/L, magnesium chloride 5 mmol/L, evaluation compound 1 µmol/L, 37°C, 60 minutes, average of duplicate
Catalogue of Concentration of evaluation compound decreased readings, one per entry.
RECORDED METRIC: Concentration of evaluation compound decreased (µM)

- COMPOUND: "O=C(OCOP(=O)([O-])OC[N+]1(CCCCOc2ccc3ccc(=O)[nH]c3c2)CCN(c2cccc3sccc23)CC1)OCC1CCOCC1"
  OBSERVED: -0.07
- COMPOUND: "O=C(OCCCOC1CCCCO1)OCOP(=O)([O-])OC[N+]1(CCCCOc2ccc3ccc(=O)[nH]c3c2)CCN(c2cccc3sccc23)CC1 (stereo not shown)"
  OBSERVED: -0.02
- COMPOUND: "CC(=O)Oc1ccccc1C(=O)OCOP(=O)([O-])OC[N+]1(CCCCOc2ccc3ccc(=O)[nH]c3c2)CCN(c2cccc3sccc23)CC1"
  OBSERVED: 0.17
- COMPOUND: "CCOC(=O)C1CCN(CCOP(=O)([O-])OC[N+]2(CCCCOc3ccc4ccc(=O)[nH]c4c3)CCN(c3cccc4sccc34)CC2)CC1"
  OBSERVED: 0.07
- COMPOUND: "CCOP(=O)([O-])OC[N+]1(CCCCOc2ccc3ccc(=O)[nH]c3c2)CCN(c2cccc3sccc23)CC1"
  OBSERVED: 0.01
- COMPOUND: "CCCCOP(=O)([O-])OC[N+]1(CCCCOc2ccc3ccc(=O)[nH]c3c2)CCN(c2cccc3sccc23)CC1"
  OBSERVED: -0.07
- COMPOUND: "CCCCOCCOCCOC(=O)OCOP(=O)([O-])OC[N+]1(CCCCOc2ccc3ccc(=O)[nH]c3c2)CCN(c2cccc3sccc23)CC1"
  OBSERVED: 0.07
- COMPOUND: "COCCOP(=O)([O-])OC[N+]1(CCCCOc2ccc3ccc(=O)[nH]c3c2)CCN(c2cccc3sccc23)CC1"
  OBSERVED: 0.02
- COMPOUND: "CCCCCCOC(=O)OC[N+]1(CCCCOc2ccc3ccc(=O)[nH]c3c2)CCN(c2cccc3sccc23)CC1.[I-] [REX 7, reference compound]"
  OBSERVED: 0.27
- COMPOUND: "CCCCOCCOCCOP(=O)([O-])OC[N+]1(CCCCOc2ccc3ccc(=O)[nH]c3c2)CCN(c2cccc3sccc23)CC1"
  OBSERVED: 0.00
- COMPOUND: "CCC(CC)COC(=O)[C@@H](C)OP(=O)([O-])OC[N+]1(CCCCOc2ccc3ccc(=O)[nH]c3c2)CCN(c2cccc3sccc23)CC1"
  OBSERVED: 0.08
- COMPOUND: "CC(C)(C)C(=O)OCOP(=O)([O-])OC[N+]1(CCCCOc2ccc3ccc(=O)[nH]c3c2)CCN(c2cccc3sccc23)CC1"
  OBSERVED: -0.01
- COMPOUND: "CCOCCOCCOP(=O)([O-])OC[N+]1(CCCCOc2ccc3ccc(=O)[nH]c3c2)CCN(c2cccc3sccc23)CC1"
  OBSERVED: -0.02
